# protocol_description: Cytotoxicity against human Caco-2 cells assessed as cell viability at 256 ug/ml incubated for 24 hrs by CCK-8 assay
# Assay type: toxicity, cell-based
# recorded_conditions: at 256 µg/mL, read-out: Activity
Could you please report measured viability at 24 h, 256 ug/ml for the items listed next?
Numbers only, in %.

Worked set:
C[C@@H]1[C@H](O)[C@@H](C)/C=C/C=C/C=C/C=C/C=C/C=C/C=C/[C@H](O[C@@H]2O[C@H](C)[C@@H](O)[C@H](N)[C@@H]2O)C[C@@H]2O[C@](O)(C[C@@H](O)C[C@@H](O)[C@H](O)CC[C@@H](O)C[C@@H](O)CC(=O)O[C@H]1C)C[C@H](O)[C@H]2C(=O)O ... 28.7
CCCCNC(=O)c1c(O)c2sccc2n(Cc2ccccc2)c1=O ... 104

Continue with the next compound.
In: Fill blank: measured viability at 24 h, 256 ug/ml of the compound OC(Cn1cncn1)(Cn1cncn1)c1ccc(F)cc1F is ____.
Out: 95.3

* * *

# System: Cryptococcus neoformans
# protocol_description: Antifungal activity against Cryptococcus neoformans H99 assessed as fungal growth inhibition incubated for 72 hrs by broth microdilution method
# Type: functional
Could you please report measured MIC for the items listed next?
Give bare numbers, in µg/mL.

C#CCNC(=O)c1c(O)c2sccc2n(Cc2ccccc2)c1=O ... 16
O=C(NCCCO)c1c(O)c2sccc2n(Cc2ccccc2)c1=O ... 4
CC1CCN(CCNC(=O)c2c(O)c3sccc3n(Cc3ccccc3)c2=O)CC1 ... 32

Each of the following entries comes with a recorded value; kindly state MIC for each.
1. O=C(NCc1ccccc1F)c1c(O)c2sccc2n(Cc2ccccc2)c1=O
2. O=C(NC1CCCCC1)c1c(O)c2sccc2n(Cc2ccccc2)c1=O

Out:
[2, 8]

* * *

Could you please report measured MIC for the items listed next?
# Tested on: Aspergillus fumigatus
# protocol_description: Antifungal activity against Aspergillus fumigatus 7544 assessed as fungal growth inhibition incubated for 48 hrs by broth microdilution method
# Type: functional

Worked set:
CCOCCNC(=O)c1c(O)c2sccc2n(Cc2ccccc2)c1=O ... 16 µg/mL
CCCCCCNC(=O)c1c(O)c2sccc2n(Cc2ccccc2)c1=O ... > 64 µg/mL
CCCNC(=O)c1c(O)c2sccc2n(Cc2ccccc2)c1=O ... > 64 µg/mL
O=C(NCc1ccc(F)cc1)c1c(O)c2sccc2n(Cc2ccccc2)c1=O ... > 64 µg/mL

Each of the following entries comes with a recorded value; kindly state MIC for each.
1. O=C(NCc1ccccc1F)c1c(O)c2sccc2n(Cc2ccccc2)c1=O
2. O=C(NN1CCOCC1)c1c(O)c2sccc2n(Cc2ccccc2)c1=O

Out:
["> 64 µg/mL", "> 64 µg/mL"]

* * *

# protocol_description: Selectivity index, ratio of IC50 for rabbit RBC to MIC for antifungal activity against Cryptococcus neoformans
# Assay type: toxicity
# recorded_conditions: red blood cells, read-out: Selectivity Index
measured_endpoint: selectivity ratio

In: Fill blank: measured selectivity ratio of the compound CCCCNC(=O)c1c(O)c2sccc2n(Cc2ccccc2)c1=O is ____.
Out: > 256

* * *

Could you please report measured MIC for the items listed next?
# Test system: Aspergillus fumigatus
# protocol_description: Antifungal activity against Aspergillus fumigatus 7544 assessed as fungal growth inhibition incubated for 48 hrs by broth microdilution method
# Assay type: functional

Worked set:
OC(Cn1cncn1)(Cn1cncn1)c1ccc(F)cc1F [FLUCONAZOLE] ... > 64 µg/mL
COCCNC(=O)c1c(O)c2sccc2n(Cc2ccccc2)c1=O ... 32 µg/mL
CC(C)CNC(=O)c1c(O)c2sccc2n(Cc2ccccc2)c1=O ... > 64 µg/mL
CC(C)NC(=O)c1c(O)c2sccc2n(Cc2ccccc2)c1=O ... > 64 µg/mL
C#CCNC(=O)c1c(O)c2sccc2n(Cc2ccccc2)c1=O ... > 64 µg/mL
O=C(NCc1ccc(F)cc1F)c1c(O)c2sccc2n(Cc2ccccc2)c1=O ... > 64 µg/mL
CN(C)c1ccc(CNC(=O)c2c(O)c3sccc3n(Cc3ccccc3)c2=O)cc1 ... > 64 µg/mL
O=C(NCc1cccs1)c1c(O)c2sccc2n(Cc2ccccc2)c1=O ... > 64 µg/mL

Each of the following entries comes with a recorded value; kindly state MIC for each.
1. O=C(NCc1ccc(Cl)cc1)c1c(O)c2sccc2n(Cc2ccccc2)c1=O
2. CC(NC(=O)c1c(O)c2sccc2n(Cc2ccccc2)c1=O)c1ccccc1 (stereo unspecified)
3. C[C@@H]1[C@H](O)[C@@H](C)/C=C/C=C/C=C/C=C/C=C/C=C/C=C/[C@H](O[C@@H]2O[C@H](C)[C@@H](O)[C@H](N)[C@@H]2O)C[C@@H]2O[C@](O)(C[C@@H](O)C[C@@H](O)[C@H](O)CC[C@@H](O)C[C@@H](O)CC(=O)O[C@H]1C)C[C@H](O)[C@H]2C(=O)O [AMPHOTERICIN B]

Out:
1. > 64 µg/mL
2. > 64 µg/mL
3. 2 µg/mL

* * *

# protocol_description: C0 in Sprague-Dawley rat at 2 mg/kg,iv by LC-MS/MS analysis
# Type: ADME, organism-based
# recorded_conditions: in vivo
measured_endpoint: C0 (ng/mL)
Numbers only, in ng/mL.

In: Fill blank: measured C0 of the compound CCCCNC(=O)c1c(O)c2sccc2n(Cc2ccccc2)c1=O is ____.
Out: 2460

* * *

# protocol_description: Selectivity index, ratio of IC50 for human Caco-2 to MIC for antifungal activity against Cryptococcus neoformans
# Format: toxicity
# recorded_conditions: Caco-2 cells, read-out: Selectivity Index
measured_endpoint: selectivity ratio

In: Fill blank: measured selectivity ratio of the compound CCCCNC(=O)c1c(O)c2sccc2n(Cc2ccccc2)c1=O is ____.
Out: > 256

* * *

# protocol_description: Tmax in Sprague-Dawley rat at 5 mg/kg,po by LC-MS/MS analysis
# Assay type: ADME, organism-based
# recorded_conditions: in vivo
measured_endpoint: Tmax (min)
Answers are plain numbers, in min.

In: Fill blank: measured Tmax of the compound CCCCNC(=O)c1c(O)c2sccc2n(Cc2ccccc2)c1=O is ____.
Out: 3.17

* * *

# target_under_test: Voltage-gated inwardly rectifying potassium channel KCNH2 (Homo sapiens)
# Sequence (Q12809 whole entry): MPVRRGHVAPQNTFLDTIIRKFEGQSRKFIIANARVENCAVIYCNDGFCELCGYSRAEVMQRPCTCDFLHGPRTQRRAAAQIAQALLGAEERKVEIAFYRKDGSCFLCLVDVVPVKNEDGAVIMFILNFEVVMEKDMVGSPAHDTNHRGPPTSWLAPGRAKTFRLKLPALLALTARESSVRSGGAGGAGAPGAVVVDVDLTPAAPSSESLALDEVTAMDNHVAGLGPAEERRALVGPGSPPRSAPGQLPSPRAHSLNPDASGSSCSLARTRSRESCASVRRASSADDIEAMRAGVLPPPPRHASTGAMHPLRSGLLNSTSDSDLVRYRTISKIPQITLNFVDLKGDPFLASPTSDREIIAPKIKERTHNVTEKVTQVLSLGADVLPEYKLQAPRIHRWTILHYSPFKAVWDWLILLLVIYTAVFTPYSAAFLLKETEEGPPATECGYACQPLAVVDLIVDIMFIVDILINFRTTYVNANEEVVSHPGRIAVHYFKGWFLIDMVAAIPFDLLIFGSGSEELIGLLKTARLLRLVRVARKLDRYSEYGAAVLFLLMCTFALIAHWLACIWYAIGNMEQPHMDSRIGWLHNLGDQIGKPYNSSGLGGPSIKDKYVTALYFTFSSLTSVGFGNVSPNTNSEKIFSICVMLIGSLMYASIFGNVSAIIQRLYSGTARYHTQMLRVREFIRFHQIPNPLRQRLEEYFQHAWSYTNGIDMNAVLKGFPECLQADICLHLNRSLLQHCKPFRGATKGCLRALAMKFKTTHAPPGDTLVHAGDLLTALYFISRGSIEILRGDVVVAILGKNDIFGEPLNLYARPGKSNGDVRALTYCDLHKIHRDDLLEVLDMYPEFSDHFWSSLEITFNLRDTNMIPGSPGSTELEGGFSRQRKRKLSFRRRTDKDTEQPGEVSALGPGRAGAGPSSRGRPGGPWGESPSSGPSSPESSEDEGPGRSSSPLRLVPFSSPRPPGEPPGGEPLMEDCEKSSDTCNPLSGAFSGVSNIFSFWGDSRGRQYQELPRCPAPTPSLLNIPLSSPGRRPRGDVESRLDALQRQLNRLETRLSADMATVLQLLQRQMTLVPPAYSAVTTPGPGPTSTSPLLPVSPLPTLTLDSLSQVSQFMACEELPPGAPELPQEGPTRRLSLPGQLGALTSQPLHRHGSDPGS
# protocol_description: Inhibition of human […] potassium channel by automated patch clamp electrophysiology
measured_endpoint: IC50 (µM)
Give bare numbers, in µM.

In: Fill blank: measured IC50 of the compound CCCCNC(=O)c1c(O)c2sccc2n(Cc2ccccc2)c1=O is ____.
Out: 23.4

* * *

# System: Aspergillus fumigatus
# protocol_description: Antifungal activity against Aspergillus fumigatus 7544 assessed as fungal growth inhibition incubated for 48 hrs by broth microdilution method
# Assay type: functional
Could you please report measured MIC for the items listed next?

Worked set:
Cc1ccc(CNC(=O)c2c(O)c3sccc3n(Cc3ccccc3)c2=O)o1 ... > 64 µg/mL
O=C(NCCCCO)c1c(O)c2sccc2n(Cc2ccccc2)c1=O ... 32 µg/mL
CCCCCNC(=O)c1c(O)c2sccc2n(Cc2ccccc2)c1=O ... > 64 µg/mL

Continue with the next compound.
In: Fill blank: measured MIC of the compound O=C(NCCc1ccccc1)c1c(O)c2sccc2n(Cc2ccccc2)c1=O is ____.
Out: > 64 µg/mL

* * *

Could you please report measured MIC for the items listed next?
# Tested on: Aspergillus fumigatus
# protocol_description: Antifungal activity against Aspergillus fumigatus 7544 assessed as fungal growth inhibition incubated for 48 hrs by broth microdilution method
# Type: functional
Give bare numbers, in µg/mL.

O=C(NCc1ccccn1)c1c(O)c2sccc2n(Cc2ccccc2)c1=O ... 16

In: Fill blank: measured MIC of the compound CC1CCN(CCNC(=O)c2c(O)c3sccc3n(Cc3ccccc3)c2=O)CC1 is ____.
Out: 32
